Taken from ChEMBL document CHEMBL3593162.

measured.target: Vitamin D3 receptor (Rattus norvegicus, UniProt P13053)
protocol: Displacement of [3H]-1alpha25-(OH)2D3 from full length recombinant rat vitamin D receptor by scintillation counting analysis
Entries and their measured Ki follow.

Some solved entries appear below for comparison.
>>> observed("C=C1CC[C@]2(C)[C@@H]([C@H](C)CCCC(C)(C)O)CC[C@H]2/C1=C/C=C1/C[C@@H](O)C[C@H](O)[C@H]1C")
"> 10 µM"
>>> observed("C=C1CC[C@]2(C)[C@@H]([C@H](C)CCCC(C)(C)O)CC[C@H]2/C1=C/C=C1/C[C@@H](O)C[C@H](O)[C@@H]1C")
"> 10 µM"

We next turn to a different compound, shown below.
Q: Which measured Ki value corresponds to `C=C1CC[C@]2(C)[C@@H]([C@H](C)CCCC(C)(C)O)CC[C@H]2/C1=C/C=C1C[C@@H](O)C[C@H](O)C1` ?
Result: 0.02 µM

---

protocol: Induction of transcriptional activity in rat ROS 17/2.8 cells after 16 hrs by 24-hydroxylase luciferase reporter gene assay
Type: functional
condition.description: Rattus norvegicus, 16 h; read-out: ED50 (the source's name)
readout.kind: EC50 (µM)

>>> observed("C=C1CC[C@]2(C)[C@@H]([C@H](C)CCCC(C)(C)O)CC[C@H]2/C1=C/C=C1/C[C@@H](O)C[C@H](O)[C@H]1C")
1
>>> observed("C/C=C1\\CC[C@]2(C)[C@@H]([C@H](C)CCCC(C)(C)O)CC[C@H]2\\C1=C\\C=C1C[C@@H](O)C[C@H](O)C1")
1

---

measured.target: Vitamin D3 receptor (Rattus norvegicus) (UniProt P13053)
protocol: Potency index, ratio of 1alpha,25-(OH)2D3 Ki to compound Ki for full length recombinant rat vitamin D receptor
readout.kind: Ratio Ki

>>> observed("C=C1CC[C@]2(C)[C@@H]([C@H](C)CCCC(C)(C)O)CC[C@H]2/C1=C/C=C1C[C@@H](O)C[C@H](O)C1")
0.005

A. C=C1/C(=C\C=C2/[C@H](C)CC[C@]3(C)[C@@H]([C@H](C)CCCC(C)(C)O)CC[C@@H]23)C[C@@H](O)C[C@@H]1O
B. C[C@H](CCCC(C)(C)O)[C@H]1CC[C@H]2/C(=C/C=C3C[C@@H](O)C[C@H](O)C3)[C@@H](C)CC[C@]12C
Q: Between the two listed entries A and B , which has its Ratio Ki at the higher number? Identify your pick by its label.
Result: B

---

measured.target: Vitamin D3 receptor (Rattus norvegicus)
protocol: Displacement of [3H]-1alpha25-(OH)2D3 from full length recombinant rat vitamin D receptor by scintillation counting analysis
readout.kind: Ki (nM)

A. C=C1/C(=C\C=C2/[C@H](C)CC[C@]3(C)[C@@H]([C@H](C)CCCC(C)(C)O)CC[C@@H]23)C[C@@H](O)C[C@@H]1O
B. C[C@H](CCCC(C)(C)O)[C@H]1CC[C@H]2/C(=C/C=C3C[C@@H](O)C[C@H](O)C3)[C@@H](C)CC[C@]12C
Q: Which numeric Ki is bigger, that of A or that of B ? Identify your selection by its label.
Result: A
(A: 20 nM, B: 0.2 nM)

---

measured.target: Vitamin D3 receptor (Rattus norvegicus)
Sequence (whole entry): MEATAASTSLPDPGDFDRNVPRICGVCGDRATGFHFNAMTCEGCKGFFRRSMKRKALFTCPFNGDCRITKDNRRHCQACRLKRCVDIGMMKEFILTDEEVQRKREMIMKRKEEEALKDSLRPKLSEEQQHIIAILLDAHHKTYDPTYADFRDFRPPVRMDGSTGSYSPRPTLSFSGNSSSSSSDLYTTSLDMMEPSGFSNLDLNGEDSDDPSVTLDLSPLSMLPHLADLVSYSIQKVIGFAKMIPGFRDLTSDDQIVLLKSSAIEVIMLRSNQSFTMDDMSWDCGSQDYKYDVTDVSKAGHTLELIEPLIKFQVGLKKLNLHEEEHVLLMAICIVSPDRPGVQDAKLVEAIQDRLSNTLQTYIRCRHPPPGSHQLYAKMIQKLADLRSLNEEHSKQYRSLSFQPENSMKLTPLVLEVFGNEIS
protocol: Potency index, ratio of 1alpha,25-(OH)2D3 Ki to compound Ki for full length recombinant rat vitamin D receptor
readout.kind: Ratio Ki

Below: 2 compounds and their reported Ratio Ki.
>>> observed("C=C1CC[C@]2(C)[C@@H]([C@H](C)CCCC(C)(C)O)CC[C@H]2/C1=C/C=C1/C[C@@H](O)C[C@H](O)[C@@H]1C")
"< 1e-05"
>>> observed("C/C=C1\\CC[C@]2(C)[C@@H]([C@H](C)CCCC(C)(C)O)CC[C@H]2\\C1=C\\C=C1C[C@@H](O)C[C@H](O)C1")
"< 1e-05"

Okay, next one:
Q: Need Ratio Ki, item `C=C1CC[C@]2(C)[C@@H]([C@H](C)CCCC(C)(C)O)CC[C@H]2/C1=C/C=C1/C[C@@H](O)C[C@H](O)[C@H]1C`
Result: < 1e-05
